target-or-test-system: MELK (Homo sapiens, UniProt Q14680)
Sequence (Q14680 whole entry, species assumed): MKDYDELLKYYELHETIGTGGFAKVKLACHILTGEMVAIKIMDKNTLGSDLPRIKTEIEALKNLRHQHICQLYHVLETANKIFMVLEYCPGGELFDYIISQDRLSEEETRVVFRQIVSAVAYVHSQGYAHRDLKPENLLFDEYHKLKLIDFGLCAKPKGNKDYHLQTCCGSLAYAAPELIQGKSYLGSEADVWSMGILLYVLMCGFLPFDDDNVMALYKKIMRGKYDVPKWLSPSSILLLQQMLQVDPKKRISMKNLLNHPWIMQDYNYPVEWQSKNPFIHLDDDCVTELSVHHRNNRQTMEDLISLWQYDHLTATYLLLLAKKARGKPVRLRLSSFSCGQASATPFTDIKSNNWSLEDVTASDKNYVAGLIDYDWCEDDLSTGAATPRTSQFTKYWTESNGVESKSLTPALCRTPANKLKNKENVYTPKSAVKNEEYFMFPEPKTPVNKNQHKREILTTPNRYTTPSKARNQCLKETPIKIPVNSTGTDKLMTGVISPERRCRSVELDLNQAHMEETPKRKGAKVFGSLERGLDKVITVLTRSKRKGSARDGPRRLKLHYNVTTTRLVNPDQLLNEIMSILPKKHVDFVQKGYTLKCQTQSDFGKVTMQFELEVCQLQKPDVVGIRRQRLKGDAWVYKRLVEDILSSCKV
IC50 values for the compounds below.

Answered cases to consult:
{"compound": "Nc1ncsc1C#Cc1cccc(O)c1 [Compound A27, 3-(4-aminothiazol-5-ylethynyl)phenol]", "result": "1000 to 10000 nM"}
{"compound": "CC(C)(C)OC(=O)Nc1ncsc1C#CCN1C(=O)c2ccccc2C1=O [Compound A26]", "result": "> 1000 nM"}
{"compound": "c1ccc(Cc2c[nH]c3ncsc23)cc1 [Compound A7, 6-benzyl-4H-pyrrolo[2,3-d]thiazole]", "result": "1000 to 10000 nM"}
{"compound": "Nc1ncsc1C#Cc1cnc2[nH]ccc2c1 [Compound A22]", "result": "> 1000 nM"}

Proceed to the following item.
What the record says about CC(C)(C)OC(=O)Nc1nc(-c2ccncc2)sc1C#CCN1CCOCC1 [Compound A25] : IC50 is > 1000 nM
